These data points were gathered from paper PMC11778240.

System: NF-κB pathway
Assay: NF-κB activation assay, A549 cells with SEAP reporter
Type: cell-based, Human
Conditions: 50 nM; 24 hours after dosing; A549 cells
Kindly supply the reported NF-κB activation (optical density, 630 nm) values for the records listed here.

C/C=C(\C)C(=O)O[C@@H]1[C@@H](C)[C@]2(O)[C@@H]3C=C(C)[C@H](OC(=O)c4ccccc4)[C@@]3(O)[C@H](O)C(CO)=C[C@H]2[C@@H]2C(C)(C)[C@]12OC(=O)[C@@H](C)CC | 0.26 optical density, 630 nm
C/C=C(\C)C(=O)O[C@@H]1[C@@H](C)[C@@]2(O)[C@H]([C@@H]3C(C)(C)[C@]13OC(=O)[C@@H](C)CC)[C@@H]1O[C@]1(CO)[C@@H](O)[C@]1(O)C(=O)C(C)=C[C@H]12 [EBC-46, Tigilanol tiglate] | 0.35 optical density, 630 nm
C/C=C(\C)C(=O)O[C@@H]1[C@@H](C)[C@@]2(O)[C@H]([C@@H]3C(C)(C)[C@]13OC(=O)C1CCC1)[C@@H]1O[C@]1(CO)[C@@H](O)[C@]1(O)C(=O)C(C)=C[C@H]12 | 0.38 optical density, 630 nm
CC=C(C)C(=O)OC1C(C)C2(O)C(C3OC3(COC)C(O)C3(O)C(=O)C(C)=CC32)C2C(C)(C)C12OC(=O)C(C)CC (stereo not shown) | 0.23 optical density, 630 nm

Respectfully, I request NF-κB activation (optical density, 630 nm) for each entry included below.
1. C/C=C(\C)C(=O)O[C@@H]1[C@@H](C)[C@@]2(O)[C@H]([C@@H]3C(C)(C)[C@]13OC(=O)c1ccccc1)[C@@H]1O[C@]1(CO)[C@@H](O)[C@]1(O)C(=O)C(C)=C[C@H]12
2. CC[C@H](C)C(=O)O[C@@]12[C@H](OC(=O)C3(C)CC3)[C@@H](C)[C@@]3(O)[C@H]([C@@H]1C2(C)C)[C@@H]1O[C@]1(CO)[C@@H](O)[C@]1(O)C(=O)C(C)=C[C@H]13

# output
["0.31 optical density, 630 nm", "0.40 optical density, 630 nm"]

# input Query: NF-κB activation (optical density, 630 nm); subject: CCC/C=C/C=C/C(=O)O[C@H]1/C(=C/C(=O)OC)C[C@H]2C[C@H]([C@@H](C)O)OC(=O)C[C@H](O)C[C@@H]3C[C@H](OC(C)=O)C(C)(C)[C@](O)(C[C@@H]4C/C(=C/C(=O)OC)C[C@H](/C=C/C(C)(C)[C@]1(O)O2)O4)O3 [bryostatin 1, reference compound]
# output 0.47 optical density, 630 nm

====

Biological target: PKC-β-I (Homo sapiens, UniProt P05771)
Construct: purchased Invitrogen
Sequence (P05771 whole entry): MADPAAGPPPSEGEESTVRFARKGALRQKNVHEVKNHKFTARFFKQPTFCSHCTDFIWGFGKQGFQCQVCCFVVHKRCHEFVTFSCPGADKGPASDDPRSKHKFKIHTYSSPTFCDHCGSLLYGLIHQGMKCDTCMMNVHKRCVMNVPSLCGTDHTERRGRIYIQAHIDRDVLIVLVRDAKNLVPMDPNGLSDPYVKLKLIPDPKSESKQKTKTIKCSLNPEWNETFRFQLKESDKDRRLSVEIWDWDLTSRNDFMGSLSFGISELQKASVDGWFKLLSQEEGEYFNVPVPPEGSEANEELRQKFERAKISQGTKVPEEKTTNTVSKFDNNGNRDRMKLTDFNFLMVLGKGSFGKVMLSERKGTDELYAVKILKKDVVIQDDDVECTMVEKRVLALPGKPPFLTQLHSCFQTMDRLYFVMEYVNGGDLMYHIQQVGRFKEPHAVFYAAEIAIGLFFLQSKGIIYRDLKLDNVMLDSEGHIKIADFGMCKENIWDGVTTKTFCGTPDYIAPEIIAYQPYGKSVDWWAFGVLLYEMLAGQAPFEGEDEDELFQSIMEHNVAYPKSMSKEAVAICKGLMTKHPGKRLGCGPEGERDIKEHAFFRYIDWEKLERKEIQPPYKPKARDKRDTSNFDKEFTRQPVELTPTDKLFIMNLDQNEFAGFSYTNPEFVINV
Experiment: Cell-free PKC competition binding assay against 3H-PDBu
Conditions: HotNM 2.5; HotKdNM 0.37; supplement fit; read-out: Ki (best-fit value), PKC-β-I
Method: With a diverse library of compounds bearing unique functionalities on the A-, B-, and C-rings (Fig. 6), we began to explore how these modifications affect PKC binding (Fig. 7A), NF-κB activation (Fig. 7B), cell permeation and PKC translocation (Fig. 7, C and D), and latency reversal in J-Lat cells (Fig. 8). […] The protein kinase C (PKC) affinity of EBC-46 and EBC-46 analogs was determined via […]
observation_type: pKi
One number for each entry, as −log10 of the molar value.

C/C=C(\C)C(=O)O[C@@H]1[C@@H](C)[C@@]2(O)[C@H]([C@@H]3C(C)(C)[C@]13OC(=O)Cc1cccc3ccccc13)[C@@H]1O[C@]1(CO)[C@@H](O)[C@]1(O)C(=O)C(C)=C[C@H]12 | 10.10
C/C=C(\C)C(=O)O[C@@H]1[C@@H](C)[C@]2(O)[C@@H]3C=C(C)[C@H](OC(=O)C=C(C)C)[C@@]3(O)[C@H](O)C(CO)=C[C@H]2[C@@H]2C(C)(C)[C@]12OC(=O)[C@@H](C)CC | 8.58
C/C=C(\C)C(=O)O[C@@H]1[C@@H](C)[C@@]2(O)[C@H]([C@@H]3C(C)(C)[C@]13OC(=O)c1ccccc1)[C@@H]1O[C@]1(CO)[C@@H](O)[C@]1(O)C(=O)C(C)=C[C@H]12 | 8.29
CC[C@H](C)C(=O)O[C@@]12[C@H](OC(C)(C)C)[C@@H](C)[C@@]3(O)[C@H]([C@@H]1C2(C)C)[C@@H]1O[C@]1(CO)[C@@H](O)[C@]1(O)C(=O)C(C)=C[C@H]13 | 8.83
C/C=C(\C)C(=O)O[C@@H]1[C@@H](C)[C@]2(O)[C@@H]3C=C(C)[C@H](OC(=O)c4ccccc4)[C@@]3(O)[C@H](O)C(CO)=C[C@H]2[C@@H]2C(C)(C)[C@]12OC(=O)[C@@H](C)CC | 8.83
C/C=C(\C)C(=O)O[C@@H]1[C@@H](C)[C@]2(O)[C@@H]3C=C(C)C(=O)[C@@]3(O)[C@H](O)C(CO)=C[C@H]2[C@@H]2C(C)(C)[C@]12OC(=O)[C@@H](C)CC | 9.07
C/C=C(\C)C(=O)O[C@@H]1[C@@H](C)[C@@]2(O)[C@H]([C@@H]3C(C)(C)[C@]13OC(=O)[C@@H](C)CC)[C@@H]1O[C@]1(CO)[C@@H](O)[C@]1(O)C(=O)C(C)=C[C@H]12 [EBC-46, Tigilanol tiglate] | 8.86
C/C=C(\C)C(=O)O[C@@H]1[C@@H](C)[C@@]2(O)[C@H]([C@@H]3C(C)(C)[C@]13OC(=O)[C@H](C)CC)[C@@H]1O[C@]1(CO)[C@@H](O)[C@]1(O)C(=O)C(C)=C[C@H]12 | 8.64

Consider now this further compound.
# input Under PKC-β-I (Homo sapiens, UniProt P05771): pKi value of CC[C@H](C)C(=O)O[C@@]12[C@H](OC(=O)C3(C)CC3)[C@@H](C)[C@@]3(O)[C@H]([C@@H]1C2(C)C)[C@@H]1O[C@]1(CO)[C@@H](O)[C@]1(O)C(=O)C(C)=C[C@H]13 ?
# output 8.61
